This collection of values is drawn from patent US20240368668A1.

Measured Target: mouse ADAMTS7 (Mus musculus, UniProt Q68SA9)
Construct: Full-length mouse Adamts7 1-1857 (Uniprot Q68SA9, WT or E373Q catalytic mutant); expressed in transfected cells; host or cells: Human Coronary Artery Smooth Muscle Cells (HCA-SMC, Lonza), adenovirus 50 MOI
Sequence (Q68SA9 221-1657): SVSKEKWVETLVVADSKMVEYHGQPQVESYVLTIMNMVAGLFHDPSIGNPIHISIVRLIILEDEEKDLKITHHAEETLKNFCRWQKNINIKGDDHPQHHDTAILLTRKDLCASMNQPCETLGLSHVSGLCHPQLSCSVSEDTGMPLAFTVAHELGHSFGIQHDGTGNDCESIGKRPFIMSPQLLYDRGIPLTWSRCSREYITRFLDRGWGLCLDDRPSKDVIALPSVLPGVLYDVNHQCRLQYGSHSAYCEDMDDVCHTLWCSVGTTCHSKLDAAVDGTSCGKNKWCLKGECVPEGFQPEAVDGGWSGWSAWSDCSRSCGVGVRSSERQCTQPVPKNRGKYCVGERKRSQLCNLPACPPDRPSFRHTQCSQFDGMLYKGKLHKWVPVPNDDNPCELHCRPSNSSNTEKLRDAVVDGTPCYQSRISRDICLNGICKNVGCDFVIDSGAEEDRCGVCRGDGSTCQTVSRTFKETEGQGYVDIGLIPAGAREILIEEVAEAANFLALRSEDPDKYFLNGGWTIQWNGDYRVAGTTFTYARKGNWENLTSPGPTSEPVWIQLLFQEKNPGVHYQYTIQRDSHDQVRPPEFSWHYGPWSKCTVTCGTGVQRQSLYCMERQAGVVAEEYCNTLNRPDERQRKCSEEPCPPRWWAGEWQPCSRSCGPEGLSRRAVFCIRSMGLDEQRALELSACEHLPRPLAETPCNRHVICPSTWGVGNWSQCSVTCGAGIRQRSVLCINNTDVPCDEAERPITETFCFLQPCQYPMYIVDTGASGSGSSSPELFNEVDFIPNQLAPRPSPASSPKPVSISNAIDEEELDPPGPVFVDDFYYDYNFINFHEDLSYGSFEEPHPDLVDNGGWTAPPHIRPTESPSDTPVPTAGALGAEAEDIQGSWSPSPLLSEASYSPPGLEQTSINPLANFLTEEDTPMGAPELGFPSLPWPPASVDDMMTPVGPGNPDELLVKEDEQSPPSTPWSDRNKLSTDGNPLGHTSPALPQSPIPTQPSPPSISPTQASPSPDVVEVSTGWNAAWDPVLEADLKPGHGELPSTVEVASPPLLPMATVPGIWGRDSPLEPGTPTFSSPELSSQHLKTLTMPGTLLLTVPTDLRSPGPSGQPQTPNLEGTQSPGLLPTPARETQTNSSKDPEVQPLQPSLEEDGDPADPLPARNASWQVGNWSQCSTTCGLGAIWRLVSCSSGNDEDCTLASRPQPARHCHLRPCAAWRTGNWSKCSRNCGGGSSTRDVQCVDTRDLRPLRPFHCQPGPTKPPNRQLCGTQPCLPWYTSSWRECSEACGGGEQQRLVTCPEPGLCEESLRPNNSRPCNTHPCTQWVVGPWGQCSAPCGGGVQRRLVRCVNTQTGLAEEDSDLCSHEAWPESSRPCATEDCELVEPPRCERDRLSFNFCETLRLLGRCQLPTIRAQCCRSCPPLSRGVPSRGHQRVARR
Assay: TMT10 TAILS N-terminomics, SMC2 experiment (process replicates, trypsin/AspN digest)
Assay type: cell-based
Assay Context: SMC2_TAILS HC; log fold change of N-terminal peptide, Ad-mADAMTS7 WT over Luc
From the text: ADAMTS7 Expression, Cell Culture and Preparation of the Secreted Proteins—Full-length mouse Adamts7 1-1857 (Uniprot Q68SA9, WT or E373Q catalytic mutant) with a carboxyl terminal 3xFLAG tag was used to generate custom adenoviruses as previously described. Adeno-CMV-Luciferase (Ad-Luc) from Vector Biolabs was used as a negative control. […] Expression of the Flag tagged ADAMTS7 was confirmed from the media using western blot and detected using the anti-Flag M2-HRP antibody (Sigma, A8592). […]
Square brackets hold non-standard residues; d marks the D form. Ends that are not written are not given here.
Record MET whenever logFC.mWT.over.Luc is at 2 or higher; record NOT MET when lower.

[ask] Entry QSOX1_210 (HKGVAVR; listed as Homo sapiens) : is its logFC.mWT.over.Luc no less than 2?
[reply] NOT MET

[ask] Determine whether measured logFC.mWT.over.Luc meets or exceeds 2 for LOXL2_38 ([code q]QPAPEYHQPQAPANVAKIQLR; not fully specified; listed as Homo sapiens)
[reply] NOT MET

[ask] Is it the case that MAP4_816 (VASTGPSSR; listed as Homo sapiens) has logFC.mWT.over.Luc reaching or exceeding 2?
[reply] MET

[ask] Hi, just wondering whether VIM_322 (QVQSLTCEV; listed as Homo sapiens) shows logFC.mWT.over.Luc of 2 or higher.
[reply] NOT MET

[ask] Evaluate LTBP2_290 (QHVGLSR; listed as Homo sapiens) : logFC.mWT.over.Luc at minimum 2?
[reply] MET

[ask] Record NID1_360 (FHQQHPQVI; listed as Homo sapiens) ; criterion: logFC.mWT.over.Luc no lower than 2. Met?
[reply] MET

[ask] Answer whether logFC.mWT.over.Luc of TNS1_236 (QEGLAGYQR; listed as Homo sapiens) is greater than or equal to 2.
[reply] NOT MET

[ask] Record PAK4_141 (HSEAGGGSG; listed as Homo sapiens) ; criterion: logFC.mWT.over.Luc no lower than 2. Met?
[reply] MET

New cases:
[ask] Tell me whether logFC.mWT.over.Luc is at least 2 here: VAT1_42 (AASPPLLR; listed as Homo sapiens)
[reply] MET

[ask] # check: logFC.mWT.over.Luc of SRGN_59 (LLPGESNKIPR; listed as Homo sapiens) is greater than or equal to 2
[reply] MET
